- Tested on: UACC-62
- assay protocol: NCI tumour cell line growth inhibition, 48 h
Activity calls are given as the source filed them. Rule as the data show it: active = GI50 up to about 1.1 µM and inactive = higher.
Classes used: active, inactive

INSERT INTO assay_data (compound, label) VALUES
  ('Cc1[nH]c2ccccc2c1C(=O)CC1(O)C(=O)Nc2ccccc21 (stereo not given)', 'inactive'),
  ('N#Cc1c(OCCF)c2ccccc2n2c1nc1ccccc12', 'inactive'),
  ('Cc1nnc([C@@]2(C)CC[C@H]3[C@@H](CCC4=CC(=O)CC[C@@]43C)[C@@H]2CC#N)o1', 'inactive'),
  ('COc1cccc2c1OC(c1ccc(Cl)cc1)C([N+](=O)[O-])=C2 (stereo not given)', 'inactive'),
  ('Oc1ccc(Cc2nccc3cc(O)c(O)cc23)cc1O', 'inactive'),
  ('O=S(=O)(c1ccccc1)c1ccc(/N=N/O)nc1', 'inactive'),
  ('C=C1CCCC(C)(C)[C@H]1C/C=C1\CCOC1=O', 'inactive'),
  ('CNC(=O)NCCCCC(NC(C)=O)C(=O)NCc1ccccc1 (stereo not given)', 'inactive'),
  ('N#CN=C(NCCO)NCCO', 'inactive'),
  ('COc1ccc(-n2sc3ncccc3c2=O)cc1', 'inactive'),
  ('COc1cc([C@H]2c3[nH]c4ccccc4c3C[C@H]3COC(=O)N32)cc(OC)c1O', 'active'),
  ('COc1ccc(C(C#N)NNC(=O)c2ccccc2O)cc1OC (stereo not given)', 'active'),
  ('CN1Cc2cc3cc4c(cc3nc2N(C)C1)OCCO4', 'inactive'),
  ('Cc1cccc(NC(=O)/C(=N\N)C(c2cnc3ccc([N+](=O)[O-])cc3n2)[N+](=O)[O-])c1C (stereo not given)', 'inactive'),
  ('Cc1cs/c(=N\C(P(=O)(O)O)P(=O)(O)O)n1C', 'inactive'),
  ('O=C(O)CCC(C(=O)O)N1C(=O)c2ccccc2C1=O (stereo not given)', 'inactive'),
  ('Cc1ccc(S(=O)(=O)NC2C(=O)c3ccccc3C(=O)C2n2ccnc2)cc1 (stereo not given)', 'inactive'),
  ('COc1cc(/C=C2\CC3C4CC[C@H]5C[C@@H](O)CC[C@]5(C)C4CC[C@]3(C)C2=O)cc(OC)c1OC (stereo not given in full)', 'inactive'),
  ('COc1cc2c(cc1OC)C1C=NC(C(=O)O)(C2)c2ccccc21 (stereo not given)', 'inactive'),
  ('Cn1nnnc1SC(F)(F)c1nc2ccccc2o1', 'inactive'),
  ('NC(=O)Cn1c(=O)[nH]c(=O)c2[nH]cnc21', 'inactive'),
  ('CC1OC(O)C(O)C(O)C1O (stereo not given)', 'inactive'),
  ('CCc1cccc(C(C)C)c1NC(=O)C(=O)C(C(=O)C(=O)OC)c1nc2ccccc2nc1O (stereo not given)', 'inactive'),
  ('Cc1cn(C2CC(N)C(C(=O)NCC(=O)O)O2)c(=O)[nH]c1=O (stereo not given)', 'inactive'),
  ('COc1ccc2c(c1)CCC1C3(CCCC21C)OCCO3 (stereo not given)', 'inactive'),
  ('CC1(C)CC(=O)C(C(=O)Nc2cccs2)=C(O)C1', 'inactive'),
  ('S=C(/N=C1/NCC(CN2CCN(c3ccccc3)CC2)O1)Nc1ccccc1 (stereo not given)', 'inactive'),
  ('Fc1cccc(Cl)c1/C=N\N=C1c2ccccc2-c2ccccc21', 'inactive'),
  ('N/N=C1\C(=O)N(C2CCCCC2)C(=O)C1C(=O)NC1CCCCC1 (stereo not given)', 'inactive'),
  ('CO[C@@H](C(=O)OC1C=CC2(CC1)C(=O)N(C)c1ccccc12)c1ccccc1 (stereo not given in full)', 'inactive'),
  ('CSc1nc(Cl)c(Br)c(Sc2nc(N)nc3nc[nH]c23)n1', 'inactive'),
  ('N#Cc1nc(CCC(c2nc(C#N)c(N)o2)N2C(=O)c3ccccc3C2=O)oc1N (stereo not given)', 'inactive'),
  ('O=C1CCCC/C1=C(\Br)I', 'inactive'),
  ('O=C(CC1(O)C(=O)Nc2ccc(Br)cc21)c1ccc(Cl)cc1 (stereo not given)', 'inactive'),
  ('COc1cc2c(c3oc4c(O)cccc4c(=O)c13)CC(C(C)(O)CCl)O2 (stereo not given)', 'active'),
  ('CC(=O)Oc1c2c(c3n(c1=O)CCCC3)C(=O)N(c1ccccc1)C2=O', 'inactive'),
  ('O=C(/C=C/c1ccco1)c1ccc(NCc2nc3ccccc3[nH]2)cc1', 'inactive'),
  ('COC(=O)c1cc(-c2cccn2C)c2c(c1C(=O)OC)c1ccccc1n2C', 'inactive'),
  ('O=C(N/N=C/c1cc(Br)cc(Br)c1O)c1ccccc1O', 'active'),
  ('CC1(C)[N+]([O-])=[N+]([O-])C1(C)O (stereo not given)', 'inactive'),
  ('CCCCCCCCCCCCCCNCC(OCC)OCC', 'inactive'),
  ('CC(C)=CCc1[nH]c2ccccc2c1C1=C(O)C(=O)C(c2c(CC=C(C)C)[nH]c3ccccc23)=C(O)C1=O', 'active'),
  ('CC(C)CSCC1OC(n2cnc3c(N)nccc32)C(O)C1O (stereo not given)', 'inactive'),
  ('C1=N\CCOCC/N=C\c2ccc(cc2)OCc2cccc(n2)COc2ccc/1cc2', 'inactive'),
  ('O=[N+]([O-])c1ccc(NC(=S)Nc2ccccn2)cc1', 'inactive');

Provenance of the data: ChEMBL document CHEMBL1201862
